Here the recorded IC50 is given for each entry.
Biological target: ovine COX-1 (Ovis aries, UniProt P05979)
Sequence (P05979 25-600): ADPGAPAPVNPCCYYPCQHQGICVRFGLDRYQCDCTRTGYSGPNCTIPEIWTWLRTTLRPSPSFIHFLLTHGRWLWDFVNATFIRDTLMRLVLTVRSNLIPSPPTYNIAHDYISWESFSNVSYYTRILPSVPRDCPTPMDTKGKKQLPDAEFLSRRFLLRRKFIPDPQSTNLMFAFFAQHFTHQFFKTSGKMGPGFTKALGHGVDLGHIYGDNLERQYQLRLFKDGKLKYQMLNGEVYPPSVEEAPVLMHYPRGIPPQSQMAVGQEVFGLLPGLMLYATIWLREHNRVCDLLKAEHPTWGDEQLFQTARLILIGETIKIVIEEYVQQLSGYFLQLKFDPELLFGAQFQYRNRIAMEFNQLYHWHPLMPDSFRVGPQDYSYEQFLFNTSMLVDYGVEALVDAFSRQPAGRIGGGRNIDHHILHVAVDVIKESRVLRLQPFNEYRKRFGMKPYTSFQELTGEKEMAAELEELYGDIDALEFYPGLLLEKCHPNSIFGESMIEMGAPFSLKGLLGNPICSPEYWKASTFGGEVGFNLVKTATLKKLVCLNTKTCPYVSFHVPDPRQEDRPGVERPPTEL
Quick note: give the figure in µM, leave out the unit.

Prompt: Data request, read-out IC50, for Cc1ccc(-n2cc(C(=O)c3ccc4ccccc4c3O)cc(C#N)c2=O)cc1
Response: 464

Prompt: Which IC50 reading was recorded for the molecule N#Cc1cc(C(=O)c2ccc3ccccc3c2O)cn(-c2nc3ccccc3s2)c1=O ?
Response: 684

Prompt: What value of measured IC50 is listed for N#CCC(=O)NN=Cc1coc2c(ccc3ccccc32)c1=O ?
Response: 2070

Prompt: Give the measured IC50 of O=C(C1=CSc2ccccc2N=C1)c1ccc2ccccc2c1O .
Response: 858

Prompt: What measured IC50 goes with CC(=Nn1cc(C(=O)c2ccc3ccccc3c2O)cc(C#N)c1=O)c1cc2ccccc2oc1=O ?
Response: 1500

***
Prompt: Endpoint output: IC50 of Cc1c(N=Cc2coc3c(ccc4ccccc43)c2=O)c(=O)n(-c2ccccc2)n1C [Compound 12a] . Value?
Response: 1220

Prompt: What IC50 value was documented for this molecule, O=C(C1=CNC(=S)NN=C1)c1ccc2ccccc2c1O ?
Response: 732

Prompt: Endpoint output: IC50 of Cc1c(-n2cc(C(=O)c3ccc4ccccc4c3O)cc(C#N)c2=O)c(=O)n(-c2ccccc2)n1C . Value?
Response: 728

Prompt: Data request, read-out IC50, for COc1ccc(-n2cc(C(=O)c3ccc4ccccc4c3O)cc(C#N)c2=O)cc1
Response: 789

Prompt: What does the data say about its IC50? Entry: N#Cc1cc(C(=O)c2ccc3ccccc3c2O)cn(-c2ccc([N+](=O)[O-])cc2)c1=O
Response: 283

---

Test system: MCF-7 cells (human breast adenocarcinoma)
Assay: MTT cytotoxicity assay on MCF-7
Assay type: cell-based
Conditions: MCF7, 48 h, read-out: IC50 (μM) ± SD MCF-7
IC50 values, listed per item
Output spec: scalar in µM, unitless text.

Prompt: Endpoint output: IC50 of Cc1ccc(-n2cc(C(=O)c3ccc4ccccc4c3O)cc(C#N)c2=O)cc1 . Value?
Response: 9.2

Prompt: Please give the measured IC50 for this molecule: Cc1cnc(-n2cc(C(=O)c3ccc4ccccc4c3O)cc(C#N)c2=O)s1
Response: 12.1

Prompt: What value of measured IC50 is listed for O=C(c1cnc2[nH]nc(O)c2c1)c1ccc2ccccc2c1O ?
Response: 9.1

Prompt: What does the record list as IC50 for Cc1c(-n2cc(C(=O)c3ccc4ccccc4c3O)cc(C#N)c2=O)c(=O)n(-c2ccccc2)n1C ?
Response: 10.5

Prompt: # IC50 lookup, item N#Cc1cc(C(=O)c2ccc3ccccc3c2O)cn(-c2ccc(Br)cc2)c1=O
Response: 8.9

Further cases:
Prompt: Any idea what its IC50 is? The molecule is O=C(C1=CSc2ccccc2N=C1)c1ccc2ccccc2c1O
Response: 9.7

Prompt: Can you share its IC50? I mean this molecule: N#Cc1cc(C(=O)c2ccc3ccccc3c2O)cn(-c2ccc([N+](=O)[O-])cc2)c1=O
Response: 9.3

Prompt: Quick one: IC50 for Cc1c(N=Cc2coc3c(ccc4ccccc43)c2=O)c(=O)n(-c2ccccc2)n1C [Compound 12a] ?
Response: 10.2

Source listed as paper PMC9058152.
